Conditions: [M+H]+; instrument: DT; single field, calibrated with Agilent tune mix (Agilent)
recordedEndpoint: collision cross section (N2) (Å²)

INSERT INTO results (compound, observedvalue) VALUES
  ('CC/C=C\C/C=C\C/C=C\C/C=C\C/C=C\CCCC(=O)O[C@H](CO/C=C\CCCCCCCCCCCCCCCC)COP(=O)(O)OCCN', 280.2),
  ('CCCCCC/C=C\CCCCCCCC(=O)OC[C@H](COP(=O)(O)OC[C@@H](O)CO)OC(=O)CCCCCCCCCCCCCCCCCCC', 292),
  ('CCCCC/C=C\C/C=C\CCCCCCCCCC(=O)OC[C@@H](O)COP(=O)([O-])OCC[N+](C)(C)C', 233.9),
  ('CCCCCCCCCCCCC=CC[C@@H](O)[C@H](CO)NC(=O)CCCCCCCCCCCCCCC', 253.6),
  ('CCCC/C=C\CCCCCCCC(=O)OC[C@H](COP(=O)(O)OCCN)OC(=O)CCCCCCCCC/C=C\C/C=C\CCCCC', 270.9),
  ('CCCCCC/C=C\CCCCCCCCCC(=O)OC[C@H](COP(=O)([O-])OCC[N+](C)(C)C)OC(=O)CCCCCCCCCCCCCCC', 287.1),
  ('CCCCCCCCC/C=C\CCCCCCCC(=O)O[C@H](COC(=O)CCCCCCCCCCCC)COP(=O)(O)OCCN', 267.2),
  ('CCCCCCCCCCCCCCCCCCCCC(=O)O[C@H](COC(=O)CCCCCCCCCCCC)COP(=O)([O-])OCC[N+](C)(C)C', 289.7),
  ('CCCCCCCCCCCCC=CC[C@@H](O)[C@H](COP(=O)([O-])OCC[N+](C)(C)C)NC(=O)CC=CCCCCCCCCCCCCCC', 286.1),
  ('CCCCC/C=C\C/C=C\CCCCCCCCCCCC(=O)O[C@H](COC(=O)CCCCCCCCCCC)COP(=O)(O)O[C@H]1C(O)C(O)C(O)[C@@H](O)C1O (stereo partly drawn)', 291.6),
  ('CCCCC/C=C\C/C=C\CCCCCCCCCCCC(=O)O[C@H](COC(=O)CCCCCCC/C=C\CCCCCC)COP(=O)(O)O[C@H]1C(O)C(O)C(O)[C@@H](O)C1O (stereo partly drawn)', 304.2),
  ('CCCCCCCCCCCCCCCCCCCCCC(=O)OC[C@H](COP(=O)(O)OCCN)OC(=O)CCCCCCCCCCC', 277.5),
  ('CCCCCCCCCCCCCCCCCCCCCC(=O)N[C@@H](CO)[C@H](O)CCCCCCCCCCCCCCC', 274.7);

* * *

Conditions: [M+H]+; instrument: TW; calibrated with phosphatidylcholines (ESI+) and phosphatidylethanolamines (ESI-)
recordedEndpoint: collision cross section (N2) (Å²)

INSERT INTO measurements (compound, observedvalue) VALUES
  ('CCCCC/C=C\C/C=C\CCCCCCCCCCCC(=O)O[C@H](CO/C=C\CCCCCCCCCCCCCC)COP(=O)(O)OCCN', 284),
  ('CCCCC/C=C\C/C=C\C/C=C\C/C=C\CCCCCC(=O)O[C@H](COC(=O)CCCCCCC/C=C\C/C=C\CCCCC)COP(=O)([O-])OCC[N+](C)(C)C', 293.3),
  ('CCCCC/C=C\C/C=C\CCCCCCCCCCCC(=O)O[C@H](COC(=O)CCCCCCC/C=C\C/C=C\CCCCC)COP(=O)(O)OCCN', 286.8),
  ('CCCC/C=C\C/C=C\CCCCCCCC(=O)OC[C@H](COP(=O)(O)OCCN)OC(=O)CCCCCCC/C=C\CCCCCCCCC', 273.7),
  ('CCCCCCCCCCCCCCCCCCCCC(=O)O[C@H](COC(=O)CCCCCCCCCCCC)COP(=O)([O-])OCC[N+](C)(C)C', 285.8),
  ('CCCCCCCCCCCCCC/C=C\OC[C@@H](O)COP(=O)([O-])OCC[NH3+]', 215.6),
  ('CCCCC/C=C\C/C=C\CCCCCCCCCC(=O)O[C@H](COC(=O)CCCCCCC/C=C\C/C=C\CCCCC)COP(=O)(O)OCCN', 280.4),
  ('CCCCCCCCCC/C=C\CCCCCCCCCC(=O)O[C@H](COC(=O)CCCCCCCCCCC)COP(=O)(O)OCCN', 272.8),
  ('CCCCCCCCCCCCCCCC(=O)N[C@@H](CO)[C@H](O)CCCCCCCCCCCCCCC', 255.1),
  ('CC/C=C\C/C=C\C/C=C\C/C=C\C/C=C\C/C=C\CCC(=O)O[C@H](CO/C=C\CCCCCC/C=C\CCCCCCCC)COP(=O)(O)OCCN', 283),
  ('CCCCCCCCCCCCC=CC[C@@H](O)[C@H](CO)NC(=O)CCCCCCCCCCCCCCCCCCCCCCCCC [Cer(d18:0/26:1)]', 284.5),
  ('CCC/C=C\C/C=C\CCCCCCCCCC(=O)O[C@H](COC(=O)CCCCCCCCCCCCC)COP(=O)([O-])OCC[N+](C)(C)C', 274),
  ('CCCCC/C=C\C/C=C\CCCCCCCC(=O)O[C@H](CO/C=C\CCCCCCCCCCCCCC)COP(=O)(O)OCCN', 271.8),
  ('CCCCCCCC/C=C\CCCCCC/C=C\OC[C@@H](O)COP(=O)([O-])OCC[NH3+]', 217.2),
  ('CCCCCCCCCCCCC=CC[C@@H](O)[C@H](COP(=O)([O-])OCC[N+](C)(C)C)NC(=O)CC=CCCCCCCCCCCCCCC', 283.2),
  ('CC/C=C\C/C=C\C/C=C\C/C=C\C/C=C\C/C=C\CCC(=O)O[C@H](COC(=O)CCCCCCCCC/C=C\C/C=C\CCCCC)COP(=O)(O)OCCN', 290),
  ('CC/C=C\C/C=C\C/C=C\C/C=C\C/C=C\CCCC(=O)O[C@H](CO/C=C\CCCCCCCCCCCCCCCC)COP(=O)(O)OCCN', 278.3),
  ('CCCCCC/C=C\CCCCCCCCCC(=O)OC[C@H](COP(=O)([O-])OCC[N+](C)(C)C)OC(=O)CCCCCCCCCCCCCCC', 285.3),
  ('CCCCC/C=C\C/C=C\C/C=C\CCCCC(=O)OC[C@H](COP(=O)([O-])OCC[N+](C)(C)C)OC(=O)CCCCCCCCC/C=C\CCCCCCCC', 291.2),
  ('CCCCCCCCCCCCC=CC[C@@H](O)[C@H](COP(=O)([O-])OCC[N+](C)(C)C)NC(=O)CCCCCCCCCCCCCCCCCCCCC', 297.1),
  ('CCCCC/C=C\C/C=C\CCCCCCCCCC(=O)O[C@H](CO/C=C\CCCCCCCCCCCCCCCCCC)COP(=O)(O)OCCN', 290),
  ('CCCCC/C=C\C/C=C\C/C=C\C/C=C\CCCCCC(=O)O[C@H](COC(=O)CCCCCC/C=C\C/C=C\C/C=C\CCCCC)COP(=O)(O)OCCN', 291.7),
  ('CCCCCC/C=C\CCCCCCCCCCCC(=O)O[C@H](COC(=O)CCCCCCCCC/C=C\CCCCCC)COP(=O)([O-])OCC[N+](C)(C)C', 293.7),
  ('CCCCCCCCCCCCCCCCCC(=O)O[C@H](CO)COP(=O)([O-])OCC[N+](C)(C)C', 235.7),
  ('CCCCCCCCCCCCC=CC[C@@H](O)[C@H](CO)NC(=O)CCCCCCCCCCCCCCCCC [Cer(d18:0/18:1)]', 261.3);

Origin of measurements: the C3SDB collision cross section collection
